# TARGET DESC: STARD5 (Homo sapiens, UniProt Q9NSY2)
# Construct: STARD5(6-213); host or cells: E. coli BL21(DE3)
# Sequence (Q9NSY2 6-213): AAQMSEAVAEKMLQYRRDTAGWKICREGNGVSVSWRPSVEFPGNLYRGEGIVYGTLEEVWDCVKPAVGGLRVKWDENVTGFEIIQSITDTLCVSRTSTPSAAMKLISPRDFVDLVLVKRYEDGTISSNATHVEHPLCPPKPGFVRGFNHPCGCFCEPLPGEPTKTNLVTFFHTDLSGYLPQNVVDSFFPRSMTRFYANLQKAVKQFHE
# MEASUREMENT DESCRIPTION: Differential scanning fluorimetry (DSF), STARD5
# Assay type: binding
# APPLIED CONDITIONS: apparent Kd; mean of three experiments run in technical duplicates; read-out: STARD5 Kd,app (DSF)
MEASURED PROPERTY: pKd
FYI, pKd means -log10 of a concentration in mol per litre.

INSERT INTO assay_data (compound, experimental_value) VALUES
  ('CCCCCNc1ccc2c(c1)[C@@]13CC[C@@H]4C[C@@H](CC[C@@]41C)OC3=N2 [Compound 19c]', 4.68),
  ('CC12CCC3CC1CCC21C(=Nc2ccc(NCc4ccccc4)cc21)O3 (centres unmarked) [Compound 19b]', 4.72);

Kindly consider the entry below.
Request: Which measured pKd value corresponds to CCCCN(C)c1ccc2c(c1)[C@@]13CC[C@@H]4C[C@@H](CC[C@@]41C)OC3=N2 [Compound 19d] ?
Result: 4.92
